assay: Ex vivo biodistribution screen of 111In-labeled DOTA-TATE derivatives in normal mice; set-up: species or system athymic nude mice; conditions: athymic nude, mouse, blood, iv, 1 ug per mouse, total radioactivity, normal athymic nude mice, 2 h post-injection, i.v. 1 μg (1.4–1.8 MBq), ex vivo gamma counting, mean, n = 2–4, read-out: Blood uptake
Positions of bridges follow the written chain, without caps; N, C: chain ends. Non-standard residues stand in square brackets, D forms with d. Residues, ends and D or L forms follow the SMILES beside them. *: point of attachment. X1 = C[C@H](CCC(=O)*)[C@H]1CC[C@H]2[C@@H]3[C@H](O)C[C@@H]4C[C@@H](NC(=O)CNC(=O)CN5CCN(CC(=O)O)CCN(CC(=O)O)CCN(CC(=O)O)CC5)CC[C@]4(C)[C@H]3C[C@H](O)[C@]12C; DOTA = O=C(O)CN1CCN(CC(=O)O)CCN(CC(=O)*)CCN(CC(=O)O)CC1
Response field label takes met when tissue uptake at 2 h is strictly below 0.08 %ID/g and not met in all other cases.

Record excerpt, results attached:
- Compound: "C[C@H](CCC(=O)NCC(=O)N[C@H](Cc1ccccc1)C(=O)N[C@H]1CSSC[C@@H](C(=O)N[C@H](C(=O)O)[C@@H](C)O)NC(=O)[C@H]([C@@H](C)O)NC(=O)[C@H](CCCCN)NC(=O)[C@@H](Cc2c[nH]c3ccccc23)NC(=O)[C@H](Cc2ccc(O)cc2)NC1=O)[C@H]1CC[C@H]2[C@@H]3[C@H](O)C[C@@H]4C[C@@H](NC(=O)CNC(=O)CN5CCN(CC(=O)O)CCN(CC(=O)O)CCN(CC(=O)O)CC5)CC[C@]4(C)[C@H]3C[C@H](O)[C@]12C [DOTA-G-Chol-G-TATE] (X1-G[dF]CY[dW]KTCT-OH; disulfide 3-8)"
  Category: "not met"
- Compound: "C[C@@H](O)[C@H](NC(=O)[C@@H]1CSSC[C@H](NC(=O)[C@@H](Cc2ccccc2)NC(=O)CN2CCN(CC(=O)O)CCN(CC(=O)O)CCN(CC(=O)O)CC2)C(=O)N[C@@H](Cc2ccc(O)cc2)C(=O)N[C@H](Cc2c[nH]c3ccccc23)C(=O)N[C@@H](CCCCN)C(=O)N[C@@H]([C@@H](C)O)C(=O)N1)C(=O)O [^111In-DOTA-TATE, metal not drawn, reference compound]"
  Category: "met"
- Compound: "CSCC[C@H](NC(=O)CN1CCN(CC(=O)O)CCN(CC(=O)O)CCN(CC(=O)O)CC1)C(=O)N[C@H](C(=O)N[C@@H](CCCCNC(=O)CCCC(=O)N[C@H](Cc1ccccc1)C(=O)N[C@H]1CSSC[C@@H](C(=O)N[C@H](C(=O)O)[C@@H](C)O)NC(=O)[C@H]([C@@H](C)O)NC(=O)[C@H](CCCCN)NC(=O)[C@@H](Cc2c[nH]c3ccccc23)NC(=O)[C@H](Cc2ccc(O)cc2)NC1=O)C(=O)O)C(C)C [^111In-DOTA-MVK(ε)-TATE, metal not drawn]"
  Category: "not met"

I wonder whether C[C@@H](O)[C@H](NC(=O)[C@@H]1CSSC[C@H](NC(=O)[C@@H](Cc2ccccc2)NC(=O)[C@@H](Cc2ccc(O)cc2)NC(=O)CNC(=O)CN2CCN(CC(=O)O)CCN(CC(=O)O)CCN(CC(=O)O)CC2)C(=O)N[C@@H](Cc2ccc(O)cc2)C(=O)N[C@H](Cc2c[nH]c3ccccc23)C(=O)N[C@@H](CCCCN)C(=O)N[C@@H]([C@@H](C)O)C(=O)N1)C(=O)O [^111In-DOTA-GY*-TATE, metal not drawn] ({DOTA}-G[dY][dF]CY[dW]KTCT-OH; disulfide 4-9) has tissue uptake at 2 h below 0.08 %ID/g. Can you tell?
met

Quick check: tissue uptake at 2 h of CSCC[C@H](NC(=O)CN1CCN(CC(=O)O)CCN(CC(=O)O)CCN(CC(=O)O)CC1)C(=O)N[C@H](C(=O)N[C@@H](CCCCN)C(=O)N[C@H](Cc1ccccc1)C(=O)N[C@H]1CSSC[C@@H](C(=O)N[C@H](C(=O)O)[C@@H](C)O)NC(=O)[C@H]([C@@H](C)O)NC(=O)[C@H](CCCCN)NC(=O)[C@@H](Cc2c[nH]c3ccccc23)NC(=O)[C@H](Cc2ccc(O)cc2)NC1=O)C(C)C [^111In-DOTA-MVK-TATE, metal not drawn] ({DOTA}-MVK[dF]CY[dW]KTCT-OH; disulfide 5-10) under 0.08 %ID/g?
not met

I wonder whether C[C@@H](O)[C@H](NC(=O)[C@@H]1CSSC[C@H](NC(=O)[C@@H](Cc2ccccc2)NC(=O)[C@H](Cc2ccc(O)cc2)NC(=O)CNC(=O)CN2CCN(CC(=O)O)CCN(CC(=O)O)CCN(CC(=O)O)CC2)C(=O)N[C@@H](Cc2ccc(O)cc2)C(=O)N[C@H](Cc2c[nH]c3ccccc23)C(=O)N[C@@H](CCCCN)C(=O)N[C@@H]([C@@H](C)O)C(=O)N1)C(=O)O [^111In-DOTA-GY-TATE, metal not drawn] ({DOTA}-GY[dF]CY[dW]KTCT-OH; disulfide 4-9) has tissue uptake at 2 h below 0.08 %ID/g. Can you tell?
not met

Find out if reported tissue uptake at 2 h for C[C@@H](O)[C@H](NC(=O)[C@@H]1CSSC[C@H](NC(=O)[C@@H](Cc2ccccc2)NC(=O)CNC(=O)[C@H](CC(=O)O)NC(=O)[C@H](CC(=O)O)NC(=O)[C@H](CC(=O)O)NC(=O)CNC(=O)CN2CCN(CC(=O)O)CCN(CC(=O)O)CCN(CC(=O)O)CC2)C(=O)N[C@@H](Cc2ccc(O)cc2)C(=O)N[C@H](Cc2c[nH]c3ccccc23)C(=O)N[C@@H](CCCCN)C(=O)N[C@@H]([C@@H](C)O)C(=O)N1)C(=O)O [^111In-DOTA-GDDDG-TATE, metal not drawn] ({DOTA}-GDDDG[dF]CY[dW]KTCT-OH; disulfide 7-12) is less than 0.08 %ID/g
met
